# pKi per entry for WDR5 (Homo sapiens)
Please treat pKi as minus the base-10 logarithm of the molar concentration.

Previously resolved entries follow.
> print(dat)
                              line.notation  experimental.endpoint  value.observed
1  CCN(CC)CCSc1cc(Cl)cc(NS(=O)(=O)c2cc(Br)cc(Cl)c2O)c1                    pKi            6.29
2  CCc1cc(NS(=O)(=O)c2cc(Br)cc(CC)c2O)c(O)c(C(=O)O)c1                    pKi            6.70
3  CCc1cc(NS(=O)(=O)c2cc(Br)ccc2O)c(O)c(C(=O)O)c1                    pKi            7.22

Look up pKi for this compound: O=C(NC1COC1)c1c(O)c(NS(=O)(=O)c2cc(Br)ccc2O)cc(C2CC2)c1F
6.15

Then COCCNC(=O)c1cc(C2(C#N)CCC2)cc(NS(=O)(=O)c2cc(Br)ccc2O)c1O ?
6.36

Then CNC(=O)c1cc(C2(C#N)CCC2)cc(NS(=O)(=O)c2cc(Br)cc3cccnc23)c1O ?
6.38

---

- tested-system: WDR5 (Homo sapiens, UniProt P61964)
// values below are reported pKi
Please treat pKi as minus the base-10 logarithm of the molar concentration.

> print(dat)
                                   compound  experimental.endpoint  value.observed
1  COC[C@@H]1CCCN1C(=O)c1cc(OC(F)(F)F)cc(NS(=O)(=O)c2cc(Cl)ccc2O)c1O                    pKi            5.15
2  CC(O)(CNC(=O)c1cc(OC(F)(F)F)cc(NS(=O)(=O)c2cc(Br)ccc2O)c1O)C1CC1 (stereo not shown)                    pKi            6.37
3  COCCNC(=O)c1cc(NS(=O)(=O)c2cc(Br)cc(Cl)c2O)cc(C2CC2)c1F                    pKi            6.49

Now consider a different compound.
Look up pKi for this compound: NC(=O)c1cc(Cl)cc(NS(=O)(=O)c2cc(Br)cc(Cl)c2O)c1O
6.57

---

# pKi per entry for WDR5 (Homo sapiens, UniProt P61964)
Please treat pKi as minus the base-10 logarithm of the molar concentration.

Look up pKi for this compound: O=C(NC[C@H]1CCCO1)c1cc(Cl)cc(NS(=O)(=O)c2cc(Br)ccc2O)c1O [Example J26]
6.13

Then CNC(=O)c1c(O)c(NS(=O)(=O)c2cc(Br)ccc2O)cc(C2CC2)c1F [Example J124] ?
6.55

Then O=C(O)c1c(O)c(NS(=O)(=O)c2cc(Br)cc(F)c2O)cc(C2CC2)c1F [Example J119] ?
6.89

Then COCCN(C)C(=O)c1cc(C2CC2)cc(NS(=O)(=O)c2cc(Br)ccc2O)c1O [Example J83] ?
5.20

Then CS(=O)(=O)c1cc(Cl)cc(NS(=O)(=O)c2cc(Br)cc(OC(F)(F)F)c2O)c1 [Example S4] ?
6.07

Then Cc1c(-c2ccccc2)cc(NS(=O)(=O)c2cc(Br)ccc2O)c(O)c1C(=O)O [Example J184] ?
5.79

Then COC[C@@H]1CCCN1C(=O)c1cc(Cl)cc(NS(=O)(=O)c2cc(Br)ccc2OC)c1O [Example J56] ?
5.33

---

# Ki per entry for WDR5 (Homo sapiens)
Give your result in nM as a bare value.

Previously resolved entries follow.
> print(dat)
                                   compound  value.observed
1  CS(=O)(=O)c1cc(NS(=O)(=O)c2cc(Br)ccc2O)cc(OC(F)(F)F)c1             820
2  O=C(O)c1cc(Cl)cc(NS(=O)(=O)c2cc(Br)cc3cccnc23)c1O             780

Now consider a different compound.
Look up Ki for this compound: CCC(C)(O)CNC(=O)c1cc(OC(F)(F)F)cc(NS(=O)(=O)c2cc(Br)ccc2O)c1O (stereo not drawn)
440

---

# log10(Ki) per entry for UniProt P61964
// stored as log10 of Ki expressed in nM

Previously resolved entries follow.
> print(dat)
                                   compound  value.observed
1  CCC(O)CNC(=O)c1cc(OC(F)(F)F)cc(NS(=O)(=O)c2cc(Br)cc(F)c2O)c1O (centres unmarked)            2.51
2  O=S(=O)(Nc1cc(Cl)cc(S(=O)(=O)NCC2CCCO2)c1O)c1cc(Br)ccc1O (centres unmarked)            2.72
3  CS(=O)(=O)c1cc(Cl)cc(NS(=O)(=O)c2cc(Br)cc(Cl)c2O)c1            2.23
4  NC(=O)c1cc(C2CC2)cc(NS(=O)(=O)c2cc(Br)cc([N+](=O)[O-])c2O)c1O            2.79
5  O=C1NCCN1c1cc(Cl)cc(NS(=O)(=O)c2cc(Br)cc(Cl)c2O)c1            2.57

Look up log10(Ki) for this compound: CCc1cc(NS(=O)(=O)c2cc(Br)cc(F)c2O)c(O)c(C(=O)O)c1
2.66

Then O=C(N[C@@H]1CCOC1)c1c(O)c(NS(=O)(=O)c2cc(Br)ccc2O)cc(C2CC2)c1F ?
3.39

Then O=C(NCC(F)F)c1cc(Cl)cc(NS(=O)(=O)c2cc(Br)ccc2O)c1O ?
2.90
